experiment: chemical genetic growth profiling, strain panel (AID 1159580);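 note: tested at 20 µM; growth read once vehicle control cultures reached saturation at 30 °C; 1 = growth at the plate median or of vehicle wells; lower values mean less growth of the strain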; conditions: S. cerevisiae deletion strains, growth OD, locus YJR043C, strain POL32, active compounds read low
Screen size: about 5,500 compounds; about 2,000 (36%) were called active. Another 18% or so got no clear call; they are omitted. The list shows a part of the results.
Recorded normalized growth by entry

Lookup result for CCCCCC1C(=O)CCC1CC(=O)OC (stereo unspecified) ; measured normalized growth: 0.991 (inactive)

Lookup result for COC(=O)CCC(=O)O[C@H]1CCC2(C)C(CCC3C2C(=O)[C@@H](O)C2(C)C3CC3OC4(CCC(C)CO4)[C@@H](C)C32)C1 (stereo partly specified) ; measured normalized growth: 1 (inactive)

Lookup result for CCCCCC1C(=O)CCC1CC(=O)O (stereo unspecified) ; measured normalized growth: 1.03 (inactive)

Lookup result for Cc1cc(=O)oc2c(O)c(O)ccc12 ; measured normalized growth: 1 (inactive)

Lookup result for CCCC(CCC)C(=O)O ; measured normalized growth: 1.01 (inactive)

Lookup result for CC(=O)OCC(=O)[C@@]1(O)[C@H](OC(C)=O)CC2C3CCC4=CC(=O)C=C[C@]4(C)[C@@]3(F)[C@@H](O)C[C@@]21C (stereo partly specified) ; measured normalized growth: 0.992 (inactive)

====

experiment: chemical genetic growth profiling, strain panel (AID 1159580); settings: S. cerevisiae deletion strains, growth OD, locus YPL055C, strain LGE1, active compounds read low
The whole screen tested about 5,500 compounds, of which about 2,000 (36%) were called active. Roughly 18% stayed inconclusive and do not appear here. The list shows a part of the results.
Lab note: compare normalized growth with 1, writing y if less and n if equal or more.

Examples with answers:
SMILES REPR | ASSIGNED CLASS
N[C@@H](Cc1cc(I)c(Oc2cc(I)c(O)c(I)c2)c(I)c1)C(=O)O | n
O=C1/C(=C/c2ccc(Cl)cc2)COc2ccc(F)cc21 | y
COc1cc(CC/C(C)=N/O)ccc1OCc1ccc(Cl)cc1Cl | y
N[C@@H](Cc1c[nH]c2ccc(O)cc12)C(=O)O | n

Shifting focus to the compound that follows.
**Query** Quick check: does Nc1ccncc1 have normalized growth under 1?
**Result** n

====

assay: chemical genetic growth profiling, strain panel (AID 1159580); conditions: S. cerevisiae deletion strains, growth OD, locus YER111C, strain swi4, active compounds read low
Screen size: about 5,500 compounds; about 2,000 (36%) were called active. About 18% were inconclusive and are not listed. This is one part of the list.
QUANTITY MEASURED: normalized growth
Keep it simple and answer with nothing but the number.

COMPOUND | QUANTITY MEASURED | OBS VALUE
CCOC(=O)[C@H](CCc1ccccc1)N[C@@H](C)C(=O)N1Cc2ccccc2C[C@H]1C(=O)O | normalized growth | 0.989
CSc1ccc2c(c1)N(CCC1CCCCN1C)c1ccccc1S2 (stereo not given) | normalized growth | 1.01
CC1=C2[C@H]3OC(=O)[C@@H](C)[C@@H]3CC[C@@]2(C)C=CC1=O | normalized growth | 0.963

# ---- query compound ----
Lookup result for CN(C)CCOC(=O)COc1ccc(Cl)cc1 ; measured normalized growth: 0.98

====

assay: chemical genetic growth profiling, strain panel (AID 1159580);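 note: tested at 20 µM; growth read once vehicle control cultures reached saturation at 30 °C; 1 = growth at the plate median or of vehicle wells; lower values mean less growth of the strain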; conditions: S. cerevisiae deletion strains, growth OD, locus YJL095W, strain BCK1 (second series)
The whole screen tested about 5,500 compounds, of which about 2,000 (36%) were called active. Not shown: some 18% with an inconclusive outcome. Cut-off read from the data, not from the text of the source: active = normalized growth mostly below about 0.91 (no sharp cut-off); inconclusive = no clear call, values can overlap the other calls; inactive = mostly above about 0.92. Some of the results follow.
Your answer must be one of the following: 1 = active, 0 = inactive

Examples with answers:
COMPOUND | ASSIGNED CLASS
CC[C@H](CCC(C)[C@H]1CCC2C3CCC4C[C@@H](O)CC[C@]4(C)C3CC[C@@]21C)C(C)C (stereo partly drawn) | 0
C[C@H](CCC(=O)O)[C@H]1CCC2C3C(CC[C@@]21C)[C@@]1(C)CC[C@@H](O)C[C@H]1C[C@@H]3O (stereo partly drawn) | 0
CC(CCC(=O)O)[C@H]1CCC2C3CC[C@@H]4C[C@H](O)CC[C@]4(C)C3C[C@H](O)[C@@]21C (stereo partly drawn) | 0

**Query** Which outcome was assigned to CC(CCC(=O)O)[C@H]1CCC2C3CC[C@@H]4CCCC[C@]4(C)C3CC[C@@]21C (stereo partly drawn) in this test?
**Result** 0

**Query** Which outcome was assigned to CC(CCC(=O)O)[C@H]1CCC2C3C(C[C@H](O)[C@@]21C)[C@@]1(C)CC[C@@H](O)C[C@H]1C[C@H]3O (stereo partly drawn) in this test?
**Result** 0

**Query** Which outcome was assigned to O=c1cc(-c2ccccc2)oc2cccc(O)c12 in this test?
**Result** 0

**Query** Which outcome was assigned to CC(C)CCCC(C)C1CCC2C3CC[C@H]4CCCC[C@]4(C)C3CC[C@]12C (stereo partly drawn) in this test?
**Result** 0

**Query** Which outcome was assigned to COC(=O)CCC(C)C1CCC2C3CC[C@@H]4C[C@H](O)CC[C@]4(C)C3C[C@H](O)[C@]12C (stereo partly drawn) in this test?
**Result** 1

====

Recorded normalized growth by entry
assay: chemical genetic growth profiling, strain panel (AID 1159580);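 note: tested at 20 µM; growth read once vehicle control cultures reached saturation at 30 °C; 1 = growth at the plate median or of vehicle wells; lower values mean less growth of the strain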; conditions: S. cerevisiae deletion strains, growth OD, strain NNK1, active compounds read low
Screen size: about 5,500 compounds; about 2,000 (36%) were called active. Not shown: some 18% with an inconclusive outcome. The list shows a part of the results.

Lookup result for O=C(Nc1ccc(Cl)cc1)O/N=C\c1ccn(-c2ccccc2)n1 ; measured normalized growth: 0.903 (inactive)

Lookup result for O=C(Nc1ccc(F)c(Cl)c1)c1ccccc1O ; measured normalized growth: 0.899 (inactive)

Lookup result for O=C(Nc1cccc2ccccc12)c1ccccc1O ; measured normalized growth: 0.87 (active)

Lookup result for Cc1c(S(=O)(=O)c2ccc(Cl)cc2)csc1C(=O)NNc1cccc(Cl)c1 ; measured normalized growth: 0.966 (inactive)

Lookup result for S=C(Nc1cc(Cl)c(Cl)cc1Cl)Nc1ccccc1Br ; measured normalized growth: 0.961 (inactive)

Lookup result for O=C(NNc1ccc(Cl)cc1)c1ccc(F)cc1F ; measured normalized growth: 0.937 (inactive)

Lookup result for N#Cc1ccc(NC(=O)Nc2cccc3ccccc23)cc1 ; measured normalized growth: 0.967 (inactive)

Lookup result for O=C(CCn1c(=O)oc2ccccc21)Sc1ccc(Cl)cc1Cl ; measured normalized growth: 0.935 (inactive)

====

experiment: chemical genetic growth profiling, strain panel (AID 1159580);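 note: tested at 20 µM; growth read once vehicle control cultures reached saturation at 30 °C; 1 = growth at the plate median or of vehicle wells; lower values mean less growth of the strain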; settings: S. cerevisiae deletion strains, growth OD, locus YPL240C, strain hsp82, active compounds read low
Screen size: about 5,500 compounds; about 2,000 (36%) were called active. Not shown: some 18% with an inconclusive outcome. The list shows a part of the results.
QUANTITY MEASURED: normalized growth
Keep it simple and answer with nothing but the number.

Some compounds with recorded normalized growth:
COMPOUND | normalized growth
CC(CCC(=O)O)[C@H]1CCC2C3C[C@H](O)[C@@H]4C[C@H](O)CC[C@]4(C)C3CC[C@@]21C (stereo not given in full) | 0.991
c1ccc2nc(N3CCNCC3)ccc2c1 | 1.01
COc1cc(C)c(C(=O)Oc2cc(C)c(C(=O)O)c(O)c2C)c(OC)c1C | 0.979
COC(=O)CCC(C)C1CCC2C3CC[C@@H]4C[C@H](O)CC[C@]4(C)C3C[C@H](O)[C@]12C (stereo not given in full) | 0.992
CC(CCC(=O)O)[C@H]1CCC2C3C(C[C@H](O)[C@@]21C)[C@@]1(C)CC[C@@H](O)C[C@H]1C[C@H]3O (stereo not given in full) | 0.996
CC(CCC(=O)O)[C@H]1CCC2C3CC[C@@H]4CCCC[C@]4(C)C3CC[C@@]21C (stereo not given in full) | 0.998
N[C@H](Cc1cc(I)c(Oc2ccc(O)c(I)c2)c(I)c1)C(=O)O | 0.982
Clc1ccc2c(c1)C(N1CCNCC1)=Nc1ccccc1O2 | 0.978

Lookup result for CC(CN(C)C)CN1c2ccccc2Sc2ccccc21 (stereo not given) ; measured normalized growth: 0.997

Lookup result for CC[C@H](CCC(C)[C@H]1CCC2C3CCC4C[C@@H](O)CC[C@]4(C)C3CC[C@@]21C)C(C)C (stereo not given in full) ; measured normalized growth: 0.987

Lookup result for C[C@@H]1CC2C3CCC4=CC(=O)C=C[C@]4(C)[C@@]3(F)[C@@H](O)C[C@]2(C)[C@H]1C(=O)CO (stereo not given in full) ; measured normalized growth: 0.982

Lookup result for Nc1cc(-c2ccncc2)c[nH]c1=O ; measured normalized growth: 0.839

Lookup result for C[C@@H]1CC2C3C[C@H](F)C4=CC(=O)C=C[C@]4(C)[C@@]3(F)[C@@H](O)C[C@]2(C)[C@@]1(O)C(=O)COC(=O)C(C)(C)C (stereo not given in full) ; measured normalized growth: 1

Lookup result for CN1CCN(C2=Nc3ccccc3Oc3ccc(Cl)cc32)CC1 ; measured normalized growth: 0.987

Lookup result for NC(Cc1ccc(F)cc1)C(=O)O (stereo not given) ; measured normalized growth: 1.03

Lookup result for CC(C)CCCC(C)C1CCC2C3CC[C@H]4CCCC[C@]4(C)C3CC[C@]12C (stereo not given in full) ; measured normalized growth: 1
